- Tested on: MOLT-4 cells
- EXPERIMENTAL_PROTOCOL: Cell proliferation assay Method B, MOLT-4
- Assay type: cell-based
- CONDITION_NOTES: Homo sapiens, ALL, 72 hours, read-out: antiproliferative activity IC50, MOLT-4
pIC50: −log10 of the molar value.
MEASURED_ENDPOINT: pIC50

Name the recorded pIC50 for COc1ccc(-c2nc(N3CCOCC3)c3sc(CN(C)c4ncc(C(=O)NO)cn4)cc3n2)cn1 .
> 8.00

Try this compound next: CN(Cc1cc2nc(-c3ccc(N)cc3)nc(N3CCOCC3)c2s1)c1ncc(C(=O)NO)cn1
> 8.00

Try this compound next: CNc1ccc(-c2nc(N3CCOCC3)c3sc(CN(C)c4ncc(C(=O)NO)cn4)cc3n2)cn1
> 8.00

Try this compound next: CS(=O)(=O)N1CCN(Cc2cc3nc(-c4cccc5[nH]ncc45)nc(N4CCOCC4)c3s2)CC1 [GDC-0941, reference compound]
6.00 to 7.00

---

- System: HCC1937 cells
- EXPERIMENTAL_PROTOCOL: Cell proliferation assay Method B, HCC1937
- Type: cell-based
- CONDITION_NOTES: Homo sapiens, Breast, Method B, 72 hours, read-out: antiproliferative activity IC50, HCC1937
MEASURED_ENDPOINT: IC50

Name the recorded IC50 for Cc1ncc(-c2nc(N3CCOCC3)c3sc(CN(C)c4ncc(C(=O)NO)cn4)cc3n2)cn1 [Compound 120] .
10 to 100 nM

Try this molecule next: CN(Cc1cc2nc(-c3ccc(N)cc3)nc(N3CCOCC3)c2s1)c1ncc(C(=O)NO)cn1 [Compound 150]
< 10 nM

Try this molecule next: CS(=O)(=O)N1CCN(Cc2cc3nc(-c4cccc5[nH]ncc45)nc(N4CCOCC4)c3s2)CC1 [GDC-0941, reference compound]
100 to 1000 nM

Try this molecule next: CNc1ncc(-c2nc(N3CCOCC3)c3sc(CN(C)c4ncc(C(=O)NO)cn4)cc3n2)cn1 [Compound 116]
10 to 100 nM

Try this molecule next: CN(Cc1cc2nc(-c3cccc(CO)c3)nc(N3CCOCC3)c2s1)c1ncc(C(=O)NO)cn1 [Compound 138]
10 to 100 nM

---

For each entry below, report its melting point value.

Name the recorded melting point for CN(Cc1cc2nc(-c3cccc4[nH]ncc34)nc(Nc3ccccn3)c2s1)c1ncc(C(=O)NO)cn1 [Compound 168] .
200 to 203 °C

Try this compound next: COc1ccc(-c2nc(N3CCOCC3)c3sc(NS(=O)(=O)c4ccc(/C=C/C(=O)NO)cc4)cc3n2)cn1 [Compound 222]
> 300 °C

Try this compound next: O=C(CCCCN1CCN(Cc2cc3nc(-c4cccc5[nH]ncc45)nc(N4CCOCC4)c3s2)CC1)NO [Compound 11]
125 to 127 °C

Try this compound next: CN(CCCC(=O)NO)Cc1cc2nc(-c3cccc4[nH]ncc34)nc(N3CCOCC3)c2s1 [Compound 101]
115 to 118 °C

Try this compound next: CN(Cc1cc2nc(-c3cc(F)cc4[nH]ncc34)nc(N3CCOCC3)c2s1)c1ncc(C(=O)NO)cn1 [Compound 69]
215 to 217 °C

Try this compound next: COc1cccc(-c2nc(N3CCOCC3)c3sc(CN(C)c4ncc(C(=O)NO)cn4)cc3n2)c1 [Compound 130]
179 to 181 °C

Try this compound next: CS(=O)(=O)N1CCN(Cc2cc3nc(-c4ccc(OCCCCCC(=O)NO)cc4)nc(N4CCOCC4)c3s2)CC1 [Compound 320]
140 to 142 °C

---

For each entry below, report its melting point value.

Name the recorded melting point for Nc1ncc(-c2nc(N3CCOCC3)c3sc(NCCCCCCC(=O)NO)cc3n2)cn1 .
235 to 240 °C

Try this molecule next: CN(Cc1cc2nc(-c3cnn(C)c3)nc(N3CCOCC3)c2s1)c1ncc(C(=O)NO)cn1
164 to 169 °C

Try this molecule next: COc1ncc(-c2nc(N3CCOCC3)c3sc(CN(C)c4ncc(C(=O)NO)cn4)cc3n2)cn1
215 to 220 °C

Try this molecule next: CN(Cc1cc2nc(-c3ccc(N)c(N)c3)nc(N3CCOCC3)c2s1)c1ncc(C(=O)NO)cn1
222 to 225 °C

Try this molecule next: CN(Cc1cc2nc(-c3cccc(SCCO)c3)nc(N3CCOCC3)c2s1)c1ncc(C(=O)NO)cn1
188 to 192 °C

Try this molecule next: CN(Cc1cc2nc(-c3ccc4c(c3)CC(=O)N4)nc(N3CCOCC3)c2s1)c1ncc(C(=O)NO)cn1
270 °C (dec.)

Try this molecule next: CN(Cc1cc2nc(-c3ccc(N)c(Cl)c3)nc(N3CCOCC3)c2s1)c1ncc(C(=O)NO)cn1
241 to 246 °C

---

- Test system: MDA-MB-453 cells
- EXPERIMENTAL_PROTOCOL: Cell proliferation assay Method B, MDA-MB-453
- Assay type: cell-based
- CONDITION_NOTES: Homo sapiens, Breast, 72 hours, read-out: antiproliferative activity IC50, MDA-MB-453
For each entry below, report its IC50 value.

Name the recorded IC50 for COc1ccc(-c2nc(N3CCOCC3)c3sc(CN(C)c4ncc(C(=O)NO)cn4)cc3n2)cn1 .
< 0.01 µM

Try this compound next: CNc1ccc(-c2nc(N3CCOCC3)c3sc(CN(C)c4ncc(C(=O)NO)cn4)cc3n2)cn1
< 0.01 µM

Try this compound next: CS(=O)(=O)N1CCN(Cc2cc3nc(-c4cccc5[nH]ncc45)nc(N4CCOCC4)c3s2)CC1 [GDC-0941, reference compound]
0.1 to 1 µM

Try this compound next: CN(Cc1cc2nc(-c3ccc(N)cc3)nc(N3CCOCC3)c2s1)c1ncc(C(=O)NO)cn1
< 0.01 µM

---

- Tested on: CaPan2 cells
- EXPERIMENTAL_PROTOCOL: Cell proliferation assay Method B, CaPan2
- Type: cell-based
- CONDITION_NOTES: Homo sapiens, Capan-2, Pancreas, 72 hours, read-out: antiproliferative activity IC50, CaPan2
- Experimental: Cancer cell lines were plated at 5,000 to 10,000 per well in 96-well flat bottomed plates with various concentration of compounds. The cells were incubated with compounds for 72 hours in the presence of 0.5% of fetal bovine serum. Growth inhibition was accessed by adenosine triphosphate (ATP) content assay using Promega CellTiter-Glo kit. […] The mixture was shaken and incubated for 30 minutes and subsequently the luminescence was measured.
MEASURED_ENDPOINT: IC50

Name the recorded IC50 for CS(=O)(=O)N1CCN(Cc2cc3nc(-c4cccc5[nH]ncc45)nc(N4CCOCC4)c3s2)CC1 [GDC-0941, reference compound] .
> 10 µM

---

For each entry below, report its melting point value.

Name the recorded melting point for COCc1cccc(-c2nc(N3CCOCC3)c3sc(CN(C)c4ncc(C(=O)NO)cn4)cc3n2)c1 [Compound 139] .
178 to 181 °C

Try this compound next: CC(C)CN(Cc1cc2nc(-c3cccc4[nH]ncc34)nc(N3CCOCC3)c2s1)c1ncc(C(=O)NO)cn1 [Compound 93]
196 to 198 °C

Try this compound next: Nc1ncc(-c2nc(N3CCOCC3)c3sc(NCCCCC(=O)NO)cc3n2)cn1 [Compound 226]
175 to 180 °C

Try this compound next: CN(Cc1cc2nc(-c3cccc4[nH]ncc34)nc(N3CCOCC3)c2s1)c1ccc(/C=C/C(=O)NO)cc1 [Compound 81]
188 to 190 °C

Try this compound next: CN(Cc1cc2nc(-c3cncnc3)nc(N3CCOCC3)c2s1)c1ncc(C(=O)NO)cn1 [Compound 119]
159 to 160 °C

Try this compound next: CN(Cc1cc2nc(-c3ccc(N)c(F)c3)nc(N3CCOCC3)c2s1)c1ncc(C(=O)NO)cn1 [Compound 276]
203 to 206 °C

Try this compound next: CN(Cc1cc2nc(-c3cccc(CO)c3)nc(N3CCOCC3)c2s1)c1ncc(C(=O)NO)cn1 [Compound 138]
160 to 164 °C

Try this compound next: CN(Cc1cc2nc(-c3ccc4[nH]cnc4c3)nc(N3CCOCC3)c2s1)c1ncc(C(=O)NO)cn1 [Compound 187]
231 to 239 °C

Try this compound next: CN(C)c1ccc(-c2nc(N3CCOCC3)c3sc(CN(C)c4ncc(C(=O)NO)cn4)cc3n2)cn1 [Compound 114]
190 to 195 °C

Try this compound next: CNC(=O)c1cccc(-c2nc(N3CCOCC3)c3sc(CN(C)c4ncc(C(=O)NO)cn4)cc3n2)c1 [Compound 144]
215 to 217 °C

Try this compound next: O=C(NO)c1ccc(NCc2cc3nc(-c4cccc5[nH]ncc45)nc(N4CCOCC4)c3s2)cc1 [Compound 78]
180 to 183 °C

Measured values drawn from patent US8906909B2 for this set.
